IC50 values for HPK1 (Homo sapiens (Human)) compiled from several publications are listed below.

Some solved cases for reference:
{"columns": ["compound", "IC50"],
 "data": [
  ["COc1cc2c(cc1Nc1ncc3ccc(-c4cncc(CO)c4)cc3n1)CNCC2", "5.6 nM"],
  ["CCOc1nc2c(cc1Nc1ncc3ccnc(N4CC(C)(C)C4)c3n1)CN(C)CC2", "20.1 nM"],
  ["COc1ccc(S(C)(=O)=O)cc1Nc1ncc(C(N)=O)c(Nc2cccc3c2CCNC3)n1", "103 nM"],
  ["Cc1c(-c2cc3nc(Nc4cnn(CC(F)(F)F)c4)ncc3c(N)c2F)cnc2c1NCCO2", "0.26 nM"],
  ["CN(C)C(C)(C)C1CN(c2ccc(Nc3ccc(-c4cnc5cc(F)ccn45)c4c3C(=O)NC4)nc2)CCO1 (stereo in doubt)", "< 100 nM"]
]}

// query Need IC50, item COc1cccc(F)c1-n1nc2c(-c3ccc(N4CCC(C)(N(C)C)CC4)cc3)n[nH]c2cc1=O
// result ≤ 50 nM

// query I have this compound here, CN1CCN2c3ccc(-c4n[nH]c5cc(C#N)c(-c6c(F)cccc6F)cc45)cc3OCC2C1 (stereo not drawn) , and I need its recorded IC50.
// result 10 to 100 nM

// query Return reported IC50; argument: COc1cc2c(cc1Nc1ncc(C(N)=O)c(Nc3c(F)cccc3OC(F)F)n1)CN(C)CC2
// result 0.2 nM

// query I would be grateful if you could share the reported IC50 for N#CC1(c2ccc(Nc3ncc(C(N)=O)c(Nc4cccc5c4CCNC5)n3)cc2)CC1 .
// result 0.13 nM

// query Can you share its IC50? I mean this compound: Cc1nc2c(N3CCNC4(CC4)C3)c(NC(=O)c3ccc(=O)n(-c4c(F)cccc4F)n3)ccc2n1C
// result < 100 nM

// query Would you mind telling me what IC50 value was observed for C/C(Nc1cc(C)n(CC(F)F)n1)=C1/C(=O)Nc2cnc(-c3c(C)cccc3F)cc21 ?
// result < 50 nM

// query # input compound: CNC(=O)C(F)(F)c1ccc(Nc2ncc3c(N)c(F)c(-c4cnc5c(c4C)NCCO5)cc3n2)cc1 ; wanted: its IC50
// result 0.136 nM

// query Consider the compound C[C@@H]1CN(c2c(NC(=O)c3ccc(=O)n(-c4c(F)cccc4F)n3)ccc3nn(C45CC(C4)C5)cc23)C[C@@H]1N and give its measured IC50.
// result < 100 nM

// query # query: IC50 of entry CN(C)Cc1ccc(F)c(-c2cc(Nc3ccc(N4CCC(O)CC4)cn3)c3c(=O)[nH]ccc3n2)c1
// result 100 to 1000 nM

// query Looking for the measured IC50 of C[C@H]1NC(=O)c2c(Nc3ccc(N4CCC(O)CC4)cn3)ccc(-c3cnc4ccccn34)c21 , can you help?
// result < 100 nM

// query Any idea what IC50 was measured for CCOc1nc2c(cc1Nc1ncc3cccc(-c4ccccc4OC)c3n1)CN(C)CC2 ?
// result < 0.1 nM

// query Bench note: what IC50 did CNC1CCCc2c1ccc(F)c2-c1cc(Nc2ccc(N3CCC(O)CC3)cn2)c2c(=O)[nH]ccc2n1 (stereo not drawn) show?
// result 100 to 1000 nM

// query Data request, read-out IC50, for COc1cc(-c2cnc3[nH]cc(-c4ccc(C(=O)N(C)C[C@@H]5CCOC5)cc4)c3n2)cc2c1CN(C)CC2
// result 14 nM

// query Please report the recorded IC50 for Cc1cc(-c2cnc(N)c(OCc3ccnc4ccccc34)n2)cc2c1CCN(C)C2 .
// result 38 nM

// query Query: IC50; subject: N[C@@H]1CCN(c2c(NC(=O)c3ccc(=O)n(-c4c(F)cccc4F)n3)ccc3c2cnn3C2CCOCC2)C1
// result < 100 nM

// query Param item = Cc1ccn2c(-c3ccc(Nc4ccc(N5CCO[C@H](C(C)(C)O)C5)cn4)c4c3CNC4=O)cnc2c1 ; retrieve measured IC50.
// result < 100 nM

// query Record request: IC50 value, item Cn1c(C2CC2)nc2c(N3CC[C@H](N)C3)c(NC(=O)c3ccc(=O)n(-c4c(F)cccc4F)n3)ccc21
// result < 100 nM

// query Consider the compound O=C1NCc2c(-c3cnn4c3CCCC4)ccc(Nc3ccc(N4CCC[C@@]5(CCNC5=O)C4)cn3)c21 and give its measured IC50.
// result 100 to 1000 nM

// query GET /values?readout=IC50&item= CC(C)c1cc(Nc2ccc(S(=O)(=O)N3CCCCC3)cn2)c2c(=O)[nH]ccc2n1
// result 100 to 1000 nM

// query Recorded IC50 of CCNC(=O)c1ccc(Nc2cc(-c3c(F)cccc3F)nc3cc[nH]c(=O)c23)cc1 , please.
// result ≤ 100 nM

// query I'd like to know its IC50. The compound in question is COc1cc2c(cc1Nc1ncc(C(N)=O)c(Nc3ccccc3C(O)(C(F)(F)F)C(F)(F)F)n1)CN(C)CC2
// result 0.23 nM

// query Value lookup for IC50; key = CC(C)(C)n1cc2c(N3CCC[C@@H](N)C3)c(NC(=O)c3ccc(=O)n(-c4c(F)cccc4F)n3)ccc2n1
// result < 100 nM

// query // returns reported IC50 for input Cc1ccn2c(-c3ccc(Nc4ccc(N5CC[C@H](F)[C@@H](O)C5)cn4)c4c3CNC4=O)cnc2c1F
// result < 100 nM

// query Given the entry C[C@H]1COC(=O)N1c1cc(N)c2cnc(Nc3ccc(CS(C)(=O)=O)cc3)nc2c1 , report its measured IC50.
// result 0.169 nM

// query What does the data say about its IC50? Entry: Cc1ccc(Nc2ncc3c(n2)N2CCN=C2C(c2cc(NC(=O)c4cc(C(F)(F)F)ccn4)ccc2C)=C3)cn1
// result < 100 nM
